Tested on: Ipomoea hederacea (IPOHE)
Test: Pre-emergence herbicidal evaluation, morning glory
Format: in vivo
Conditions: dose 0.4 kg/ha
Value type: IPOHE rating

| Compound | IPOHE rating |
| --- | --- |
| Cc1cc(OC=CCC(F)(F)F)nc(Oc2cc(C(F)(F)F)nn2C)c1 [Example 2] | 7 (7 - Good herbicidal effect) |
| CC(Cl)=CCOc1cc(C)cc(Oc2cc(C(F)(F)F)nn2C)n1 [Example 11] | 9 (9 - Complete kill) |
| Cc1cc(OC/C=C/C(F)(F)F)nc(Oc2cc(C(F)(F)F)nn2C)c1 [Example 1] | 9 (9 - Complete kill) |

Give measured IPOHE rating for every item shown.
1. C=C(Cl)COc1cc(C)cc(Oc2cc(C(F)(F)F)nn2C)n1 [Example 36]
2. CC(Cl)=CCOc1cc(C#N)cc(Oc2csc(C(F)(F)F)c2)n1 [Example 28]
3. Cc1cc(OCC(F)(F)C(F)(F)C(F)(F)C(F)F)nc(Oc2cc(C(F)(F)F)nn2C)c1 [Example 8]
4. Cc1cc(OCC=C(Cl)Cl)nc(Oc2cc(C(F)(F)F)nn2C)c1 [Example 12]
5. COc1cc(OCC(F)(F)C(F)F)nc(Oc2cc(C(F)(F)F)nn2C)c1 [Example 4]
6. Cc1cc(OCC(F)(F)C(F)(F)F)nc(Oc2cc(C(F)(F)F)nn2C)c1 [Example 7]
7. Cc1cc(OCC(F)(F)C(F)F)nc(Oc2cc(C(F)(F)F)nn2C)c1 [Example 6]

Completion:
1. 9 (9 - Complete kill)
2. 1 (1 - Trace effect)
3. 9 (9 - Complete kill)
4. 9 (9 - Complete kill)
5. 9 (9 - Complete kill)
6. 5 (5 - Definite injury)
7. 8 (8 - Approaching complete kill)

Data origin: patent US6852673B2
